Reference source for all entries: patent US5591728A

- System: big ET-1-induced pressor responses (inhibition of ECE)
- Protocol Notes: In vivo study on pithed rats: big ET-1-induced pressor response
- Design: species or system Sprague-Dawley rats
- Condition: big ET-1 1 nmol/kg injection, product given by infusion
Counter-ions that a name gives are not always drawn.
Catalogue of IC50 with respect to big ET-1 readings, one per entry.
Number in µg/kg/min, nothing else.

CC(C)C[C@H](NP(=O)(O)OCCO)C(=O)N[C@@H](Cc1c[nH]c2ccccc12)C(=O)O [Example 4, disodium salt]    430
CC(C)C[C@H](NP(=O)(O)OCC(O)CO)C(=O)N[C@@H](Cc1c[nH]c2ccccc12)C(=O)O (stereo partly shown) [Example 1, disodium salt]    100
CC(C)C[C@H](NP(=O)(O)OCCC(O)CO)C(=O)N[C@@H](Cc1c[nH]c2ccccc12)C(=O)O (stereo partly shown) [Example 12, dilithium salt]    140

Consider CC(C)C[C@H](NP(=O)(O)O[C@@H]1O[C@@H](C)[C@H](O)[C@@H](O)[C@H]1O)C(=O)N[C@@H](Cc1c[nH]c2ccccc12)C(=O)[O-].CC(C)C[C@H](NP(=O)(O)O[C@@H]1O[C@@H](C)[C@H](O)[C@@H](O)[C@H]1O)C(=O)N[C@@H](Cc1c[nH]c2ccccc12)C(=O)[O-].[Na+].[Na+] [Phosphoramidon, reference compound] . Its measured IC50 with respect to big ET-1 is 125
